- Target under test: Very long chain fatty acid elongase 1 (Homo sapiens, UniProt Q9BW60)
- Test details: Inhibition of ELOVL1 in AMN 2 patient-derived fibroblast assessed as reduction of C26:0 VLCFA synthesis incubated for 48 hrs by cellular assay
- Assay type: cell-based
Readout label: IC50 (µM)
Response body: numeric value in µM, unit text excluded.

Record lookup: for Very long chain fatty acid elongase 1 (Homo sapiens, UniProt Q9BW60), what IC50 belongs to `O=C(Nc1ccn(-c2ccnc(F)c2)n1)C1(c2ccccc2F)CC1` ?
0.017

====

- Target under test: Very long chain fatty acid elongase 1 (Homo sapiens, UniProt Q9BW60)
- Sequence (Q9BW60 whole entry): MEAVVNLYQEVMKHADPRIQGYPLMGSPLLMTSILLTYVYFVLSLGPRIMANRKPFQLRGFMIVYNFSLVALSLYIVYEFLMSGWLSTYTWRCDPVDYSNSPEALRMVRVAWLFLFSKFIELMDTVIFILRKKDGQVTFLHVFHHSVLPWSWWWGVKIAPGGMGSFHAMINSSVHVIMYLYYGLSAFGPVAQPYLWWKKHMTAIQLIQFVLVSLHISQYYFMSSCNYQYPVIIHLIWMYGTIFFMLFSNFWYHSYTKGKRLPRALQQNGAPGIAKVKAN
- Test details: Inhibition of ELOVL1 in CALD patient-derived human fibroblast assessed as reduction of C26:0 VLCFA synthesis incubated for 48 hrs by cellular assay
- Type: cell-based
Readout label: IC50

I have this molecule here, `O=C(Nc1ccn(-c2ccnc(F)c2)n1)C1(c2ccccc2F)CC1` , and I need its recorded IC50.
20 nM
